I'd be grateful if you could share measured growth for these entries.
# System: A549/ATCC NSCLC
# test: NCI-60 one-dose screen, 48 h (100 = growth as untreated, 0 = no growth, -100 = all killed)
# measurement.setup: 10 µM unless noted
About 83,000 compounds went through this panel and 20% of them were active in at least one assay; those are over-represented in the sample as a whole.
Please respond with the number in % and leave the unit unwritten.

Entry under test: CC[C@H](CC[C@@H](C)[C@H]1CC[C@H]2[C@@H]3CC[C@H]4C[C@]5(CC[C@]4(C)[C@H]3CC[C@]12C)OO[C@](C)(C(F)(F)F)O5)C(C)C . Its growth was 95.3

Entry under test: CCCCCCCCCCCCCCCC[N+](C)(C)C . Its growth was 29.4

Entry under test: C[C@]12CC[C@H]3[C@@H](CC=C4c5nc(-c6ccc(Br)cc6)sc5CC[C@@]43C)[C@@H]1CC[C@@H]2O . Its growth was 106

Entry under test: CC(=O)Nc1nc2c(s1)C1=CC[C@H]3[C@@H]4CC[C@H](OC(C)=O)[C@@]4(C)CC[C@@H]3[C@@]1(C)CC2 . Its growth was 54
